Below: a set of entries, each annotated with reported inhibition.
target: 6-phosphogluconate dehydrogenase, decarboxylating (Homo sapiens) (UniProt P52209); assay: 6PGD enzyme inhibitors, primary screen, biochemical, human, recombinant enzyme, NADPH absorbance (AID 1159550); settings: recombinant 6PGD, NADPH absorbance 341 nm; at 10 µM; hits give high values
Sequence (P52209 whole entry, looked up): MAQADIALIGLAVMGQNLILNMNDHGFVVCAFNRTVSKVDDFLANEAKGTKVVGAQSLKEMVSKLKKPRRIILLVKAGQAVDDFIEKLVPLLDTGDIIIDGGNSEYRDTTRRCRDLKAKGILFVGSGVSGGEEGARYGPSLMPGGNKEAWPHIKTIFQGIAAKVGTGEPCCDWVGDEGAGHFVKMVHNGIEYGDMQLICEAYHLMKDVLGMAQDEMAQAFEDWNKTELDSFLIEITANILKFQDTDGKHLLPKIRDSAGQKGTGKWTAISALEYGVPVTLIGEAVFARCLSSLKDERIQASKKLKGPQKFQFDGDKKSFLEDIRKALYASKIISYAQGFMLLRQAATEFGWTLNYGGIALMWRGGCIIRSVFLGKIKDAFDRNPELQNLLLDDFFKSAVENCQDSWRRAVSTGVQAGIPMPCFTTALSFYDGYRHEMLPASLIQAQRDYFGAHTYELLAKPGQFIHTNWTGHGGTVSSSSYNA
// units = %; emit number, no label

Solved entries:
INSERT INTO measurements (molecule, value_type, data_value) VALUES
  ('C[C@]12CCC3C(CC[C@]4(O)C[C@@H](O)CC[C@]34C=O)[C@@]1(O)CCC2C1=CC(=O)OC1 (stereo not given in full)', 'inhibition', 14.9),
  ('C=CCC1(C(C)CCC)C(=O)N=C(S)NC1=O (stereo not given)', 'inhibition', 2.84),
  ('CNNC', 'inhibition', -3.38),
  ('CC(C)CC(NC(=O)C(Cc1ccccc1)NC(=O)CNC(=O)CNC(=O)C(N)Cc1ccc(O)cc1)C(=O)O (stereo not given)', 'inhibition', 11),
  ('COc1ccc(C(=O)O[C@H]2CC[C@@]3(C)[C@@H]4CC[C@H]5[C@]6(O)C[C@H](O)[C@@]7(O)[C@@H](CN8C[C@@H](C)CC[C@H]8[C@@]7(C)O)[C@]6(O)C[C@@]53O[C@]24O)cc1OC', 'inhibition', 9.47);

Enquiry: Quick one: inhibition of CC(C)C[C@H](CN)CC(=O)O ?
Return: 9.49

Enquiry: Quick one: inhibition of CC(=O)O[C@@H]1[C@H]2CC[C@H]3[C@@](C)(O)[C@@H]4C[C@H](O)C(C)(C)[C@@]4(O)[C@H](O)C[C@@]13C[C@@]2(C)O ?
Return: 8.37

Enquiry: Quick one: inhibition of C#C[C@]1(O)CC[C@H]2[C@@H]3CCC4=CC(=O)CC[C@]4(C)[C@H]3CC[C@@]21C ?
Return: 7.17
